Record form. Attribute: residual activity. Fill in for each entry.
- system-under-test: cAMP-dependent protein kinase catalytic subunit alpha (Homo sapiens) (UniProt P17612)
- conditions-used: at 1 µM
Write the value in % as a bare number.

Short answer on cAMP-dependent protein kinase catalytic subunit alpha (Homo sapiens) (UniProt P17612) for CSc1nc(-c2ccc(F)cc2)c(-c2ccnc(NC(C)c3ccccc3)c2)[nH]1 (configuration not stated) , residual activity: 101

Short answer on cAMP-dependent protein kinase catalytic subunit alpha (Homo sapiens) (UniProt P17612) for Oc1cccc(-c2nc(N3CCOCC3)c3oc4ncccc4c3n2)c1 , residual activity: 95

Short answer on cAMP-dependent protein kinase catalytic subunit alpha (Homo sapiens) (UniProt P17612) for N#C/C(=C\c1ccc(O)c(O)c1)C(=O)NCc1ccccc1 , residual activity: 76

Short answer on cAMP-dependent protein kinase catalytic subunit alpha (Homo sapiens) (UniProt P17612) for O=C1C(Cl)=C(N2C(=O)CCC2=O)C(=O)c2ccccc21 , residual activity: 95

Short answer on cAMP-dependent protein kinase catalytic subunit alpha (Homo sapiens) (UniProt P17612) for COc1ccc(CNC(=O)Nc2ncc([N+](=O)[O-])s2)cc1 , residual activity: 109

Short answer on cAMP-dependent protein kinase catalytic subunit alpha (Homo sapiens) (UniProt P17612) for NC(=O)c1ccc(-c2nc(-c3ccc4c(c3)OCCO4)c(-c3ccccn3)[nH]2)cc1 , residual activity: 92

Short answer on cAMP-dependent protein kinase catalytic subunit alpha (Homo sapiens) (UniProt P17612) for O=C1NC(=O)c2c1c1c3ccccc3[nH]c1n1cncc21 , residual activity: 82

====

- system-under-test: Proto-oncogene tyrosine-protein kinase Src (Homo sapiens)
- conditions-used: at 1 µM
# note: exactly 90% is not below, so it is not met; use met for residual activity strictly under it

[ask] Criterion: residual activity strictly below 90%. Is it met by Nc1ncnc2c1cnn2-c1ccccc1 ?
[reply] met

[ask] Criterion: residual activity strictly below 90%. Is it met by NC(=O)c1ccc(-c2nc(-c3ccc4c(c3)OCCO4)c(-c3ccccn3)[nH]2)cc1 ?
[reply] not met

[ask] Criterion: residual activity strictly below 90%. Is it met by O=C(c1ccccc1)c1ccc(N2CCOCC2)cc1O ?
[reply] met

[ask] Criterion: residual activity strictly below 90%. Is it met by CSc1nc(-c2ccc(F)cc2)c(-c2ccnc(NC(C)c3ccccc3)c2)[nH]1 (stereo not given) ?
[reply] not met

[ask] Criterion: residual activity strictly below 90%. Is it met by CCN(CC)CCNC(=O)c1c(C)[nH]c(/C=C2\C(=O)Nc3ccc(Cl)cc32)c1C ?
[reply] met

====

- system-under-test: Tyrosine-protein kinase Yes (Homo sapiens) (UniProt P07947)
- Sequence (P07947 2-543 limits assumed): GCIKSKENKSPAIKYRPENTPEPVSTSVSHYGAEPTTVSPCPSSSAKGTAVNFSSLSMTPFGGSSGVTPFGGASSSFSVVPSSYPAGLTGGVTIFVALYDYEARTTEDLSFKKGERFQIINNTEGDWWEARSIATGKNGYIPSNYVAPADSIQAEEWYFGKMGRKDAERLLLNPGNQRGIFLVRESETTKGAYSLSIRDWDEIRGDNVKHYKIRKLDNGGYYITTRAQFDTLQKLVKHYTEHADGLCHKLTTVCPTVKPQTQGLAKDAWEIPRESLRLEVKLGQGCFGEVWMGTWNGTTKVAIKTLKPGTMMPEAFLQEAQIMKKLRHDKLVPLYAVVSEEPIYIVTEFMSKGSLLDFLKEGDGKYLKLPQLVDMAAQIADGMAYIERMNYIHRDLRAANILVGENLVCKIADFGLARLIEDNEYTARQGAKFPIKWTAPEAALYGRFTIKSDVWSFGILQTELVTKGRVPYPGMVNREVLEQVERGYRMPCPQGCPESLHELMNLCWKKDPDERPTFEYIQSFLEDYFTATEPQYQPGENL
- conditions-used: at 1 µM
measured-endpoint: residual activity (%)
Write the value in % as a bare number.

GET /value?item= O=C1Cc2c([nH]c3ccc(Br)cc23)-c2ccccc2N1 &field=residual activity returns 42

GET /value?item= O=C(c1cc2cc(O)ccc2[nH]1)c1cc2cc(O)ccc2[nH]1 &field=residual activity returns 6

GET /value?item= CSc1nc(-c2ccc(F)cc2)c(-c2ccnc(NC(C)c3ccccc3)c2)[nH]1 (stereo not given) &field=residual activity returns 99

GET /value?item= c1ccc(-c2cnc(Nc3ccc(OCCN4CCCC4)cc3)s2)cc1 &field=residual activity returns 32

GET /value?item= CN(C)S(=O)(=O)c1ccc2c(c1)/C(=C/c1cc3c([nH]1)CCCC3)C(=O)N2 &field=residual activity returns 12

====

Record form. Attribute: residual activity. Fill in for each entry.
- system-under-test: Homeodomain-interacting protein kinase 3 (Homo sapiens)
- conditions-used: at 1 µM
Write your answer as a measured quantity: the number, then the unit.

GET /value?item= COc1ccc(Cl)cc1NC(=O)Nc1cc(C)nc2ccccc12 &field=residual activity returns 99%

GET /value?item= O=C(c1ccccc1)c1ccc(N2CCOCC2)cc1O &field=residual activity returns 87%

GET /value?item= O=C1NC(=O)c2c1c1c3ccccc3[nH]c1n1cncc21 &field=residual activity returns 61%

GET /value?item= COc1cc2ncnc(Nc3cccc(Cl)c3)c2cc1OC &field=residual activity returns 110%

GET /value?item= CC(C)c1nn(-c2c(Cl)cccc2Cl)c2nc(Cc3ccc(OCCO)cc3)[nH]c(=O)c12 &field=residual activity returns 107%

GET /value?item= COc1cc2nccc(Oc3ccc(NC(=S)NC(=O)c4ccccc4C)cc3)c2cc1OC &field=residual activity returns 88%

GET /value?item= CCCCc1c(-c2ccc(OC)cc2)[nH]c2nccnc12 &field=residual activity returns 106%

GET /value?item= CCCC(=O)Oc1ccc2[nH]c(C(=O)c3cc4ccccc4[nH]3)cc2c1 &field=residual activity returns 93%

====

- system-under-test: Calcium/calmodulin-dependent protein kinase type II subunit delta (Homo sapiens)
- conditions-used: at 10 µM
# note: exactly 70% is not below, so it is not fulfilled; use fulfilled for residual activity strictly under it

[ask] Criterion: residual activity strictly below 70%. Is it met by O=C(c1cc2cc(O)ccc2[nH]1)c1cc2cc(O)ccc2[nH]1 ?
[reply] fulfilled

[ask] Criterion: residual activity strictly below 70%. Is it met by Nc1nccc(-c2c(-c3ccc(F)cc3)ncn2C2CCNCC2)n1 ?
[reply] fulfilled

[ask] Criterion: residual activity strictly below 70%. Is it met by CC(C)c1nn(-c2c(Cl)cccc2Cl)c2nc(Cc3ccc(OCCO)cc3)[nH]c(=O)c12 ?
[reply] fulfilled

[ask] Criterion: residual activity strictly below 70%. Is it met by O=C1Nc2ccccc2/C1=C\c1c(Cl)[nH]c2ccccc12 ?
[reply] fulfilled

[ask] Criterion: residual activity strictly below 70%. Is it met by O=C1Nc2ccc(Cl)cc2/C1=C/c1cc(Cl)c(O)c(Cl)c1 ?
[reply] fulfilled

[ask] Criterion: residual activity strictly below 70%. Is it met by O=C(Nc1nc2ccccc2n1CCN1CCOCC1)c1cccc([N+](=O)[O-])c1 ?
[reply] not fulfilled

[ask] Criterion: residual activity strictly below 70%. Is it met by N#Cc1c(NC(=O)c2cccc3ccccc23)sc2c1CCCC2 ?
[reply] not fulfilled

[ask] Criterion: residual activity strictly below 70%. Is it met by CC(C)(C)n1nc(Cc2cccc3ccccc23)c2c(N)ncnc21 ?
[reply] not fulfilled

====

Record form. Attribute: residual activity. Fill in for each entry.
- system-under-test: Serine/threonine-protein kinase 4 (Homo sapiens)
- Sequence (whole entry): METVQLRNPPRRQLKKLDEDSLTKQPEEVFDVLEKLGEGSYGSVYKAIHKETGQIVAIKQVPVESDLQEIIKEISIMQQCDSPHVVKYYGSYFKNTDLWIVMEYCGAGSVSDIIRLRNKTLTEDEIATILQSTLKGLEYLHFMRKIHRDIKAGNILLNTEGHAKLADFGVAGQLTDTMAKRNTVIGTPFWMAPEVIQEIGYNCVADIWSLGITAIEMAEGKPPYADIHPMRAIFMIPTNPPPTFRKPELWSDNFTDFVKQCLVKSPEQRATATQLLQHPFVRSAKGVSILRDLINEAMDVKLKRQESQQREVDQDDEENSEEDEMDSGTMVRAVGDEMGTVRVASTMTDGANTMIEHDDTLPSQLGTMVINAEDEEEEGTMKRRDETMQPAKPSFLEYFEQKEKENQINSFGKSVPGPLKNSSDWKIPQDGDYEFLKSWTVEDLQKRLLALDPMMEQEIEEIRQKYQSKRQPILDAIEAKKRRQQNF
- conditions-used: at 1 µM
Write the value in % as a bare number.

GET /value?item= N#C/C(=C1/Nc2ccccc2S1)c1ccnc(NCCc2cccnc2)n1 &field=residual activity returns 81

GET /value?item= O=C1C(Cl)=C(N2C(=O)CCC2=O)C(=O)c2ccccc21 &field=residual activity returns 76

GET /value?item= CCCCc1c(-c2ccc(O)cc2)[nH]c2nccnc12 &field=residual activity returns 61

GET /value?item= O=C(c1cc2cc(O)ccc2[nH]1)c1cc2cc(O)ccc2[nH]1 &field=residual activity returns 39

GET /value?item= O=c1cc(N2CCNCC2)oc2c(-c3ccccc3)cccc12 &field=residual activity returns 98

GET /value?item= CCOc1nc(NC(=O)Cc2cc(OC)ccc2OC)cc(N)c1C#N &field=residual activity returns 80

GET /value?item= O=C1NC(=O)C(c2cn(CCCn3ccnc3)c3ccccc23)=C1Nc1ccccc1 &field=residual activity returns 41

GET /value?item= O=C1NC(=O)C(c2cn(CCCO)c3ncccc23)=C1c1cnccn1 &field=residual activity returns 77

GET /value?item= CC(C)[C@H](CO)Nc1nc(Nc2cc(N)cc(Cl)c2)c2ncn(C(C)C)c2n1 &field=residual activity returns 82

GET /value?item= Cc1cc(C)c(/C=C2\C(=O)Nc3ccccc32)[nH]1 &field=residual activity returns 51

GET /value?item= COc1cc2nccc(Oc3ccc(NC(=S)NC(=O)c4ccccc4C)cc3)c2cc1OC &field=residual activity returns 81

GET /value?item= Oc1cccc(-c2nc(N3CCOCC3)c3oc4ncccc4c3n2)c1 &field=residual activity returns 97

GET /value?item= CC(C)N(CCC(=O)c1ccc2ccccc2c1)Cc1ccccc1 &field=residual activity returns 87

Values from ChEMBL document CHEMBL2218924
